Data provenance is patent US10351586B2.

# protocol-summary: Body weight / toxicity of a single intraperitoneal injection in HCT-116 colon tumor-bearing nude mice
# experimental-conditions: Day 28; single IP injection (QD×1); D1 and D2 400 mg/kg, D3 350 mg/kg, D4 300 mg/kg; Mean±SEM
measured-endpoint: Average weight of the animals (g)

| molecule | measured-endpoint | endpoint-result |
| --- | --- | --- |
| CCCCOC(=O)Nc1ccn([C@H]2O[C@@H](COC(=O)CCC(=O)OC[C@H]3O[C@@H](n4ccc(NC(=O)OCCCC)nc4=O)C(F)(F)[C@@H]3O)[C@H](O)C2(F)F)c(=O)n1 (stereo in doubt) [Compound D2] | Average weight of the animals | 20.18 |
| CCCCOC(=O)Nc1ccn(C2OC(COC(=O)CCCC(=O)OC[C@H]3O[C@@H](n4ccc(NC(=O)OCCCC)nc4=O)C(F)(F)[C@@H]3OC(=O)OCCCC)C(OC(=O)OCCCC)C2(F)F)c(=O)n1 (stereo in doubt) [Compound D1] | Average weight of the animals | 23.80 |
| CCCCOC(=O)Nc1ccn(C2OC(COC(=O)CCC(=O)OC[C@H]3O[C@@H](n4ccc(NC(=O)OCc5ccccc5)nc4=O)C(F)(F)[C@@H]3O)C(O)C2(F)F)c(=O)n1 (stereo in doubt) | Average weight of the animals | 21.88 |
| O=C(CCCC(=O)OC[C@H]1O[C@@H](n2ccc(NC(=O)OCc3ccccc3)nc2=O)C(F)(F)[C@@H]1O)OC[C@H]1O[C@@H](n2ccc(NC(=O)OCc3ccccc3)nc2=O)C(F)(F)[C@@H]1O | Average weight of the animals | 22.12 |
